Kindly state pIC50 for each of the entries shown.
Test system: HT-29
Experiment: Antiproliferative activity against human HT-29 cells after 48 hrs by sulforhodamine B assay
Format: functional, cell-based
Details: HT-29, 48 h
Give bare numbers, as −log10 of the molar value.

Observed pIC50 on HT-29, entry CCC(C)c1ccc(OS(=O)(=O)c2ccc(N3CCNC3=O)cc2)cc1 (stereo not drawn) , equals 6.11

Let me check: Cc1ccc(OS(=O)(=O)c2ccc(N3CCNC3=O)cc2)c(C)c1 , system HT-29, measured pIC50 is 7.29

Lab note: compound O=C1NCCN1c1ccc(S(=O)(=O)Oc2c(F)cccc2F)cc1 tested on HT-29; recorded pIC50 was 7.54

The measured pIC50 that O=C1NCCN1c1ccc(S(=O)(=O)Oc2ccc(F)cc2)cc1 showed for HT-29 is 6.92

Form field pIC50 for item CCOc1cccc(OS(=O)(=O)c2ccc(N3CCNC3=O)cc2)c1 on HT-29: 7.74

Case Cc1ccc(C)c(OS(=O)(=O)c2ccc(N3CCNC3=O)cc2)c1 , HT-29, pIC50 recorded as 8.00

Reading of pIC50 for COc1cccc(OS(=O)(=O)c2ccc(N3CCNC3=O)cc2)c1 with HT-29: 7.54

Case O=C1NCCN1c1ccc(S(=O)(=O)Oc2cccc([N+](=O)[O-])c2)cc1 , HT-29, pIC50 recorded as 7.00

Give pIC50 for all compounds that follow.
1. O=C1NCCN1c1ccc(S(=O)(=O)Oc2cc(Cl)cc(Cl)c2)cc1
2. O=C1NCCN1c1ccc(S(=O)(=O)Oc2ccc(I)cc2)cc1
3. CCCc1cccc(OS(=O)(=O)c2ccc(N3CCNC3=O)cc2)c1
4. COc1cc(OS(=O)(=O)c2ccc(N3CCCNC3=O)cc2)cc(OC)c1OC
5. O=C1NCCN1c1ccc(S(=O)(=O)Oc2ccc(F)c(F)c2)cc1
6. CCc1ccc(OS(=O)(=O)c2ccc(N3CCNC3=O)cc2)cc1
7. O=C1NCCN1c1ccc(S(=O)(=O)Oc2cccc(Cl)c2)cc1
8. O=C1NCCN1c1ccc(S(=O)(=O)Oc2ccccn2)cc1

8.00
6.82
7.47
6.31
7.12
6.82
7.82
6.32

Entry COc1ccc(OS(=O)(=O)c2ccc(N3CCNC3=O)cc2)cc1 under HT-29 had pIC50 of 6.89
